System: NCI-H322M lung
Experiment: NCI-60 one-dose screen, 48 h (100 = growth as untreated, 0 = no growth, -100 = all killed)
Details: 10 µM
About 83,000 compounds went through this panel and 20% of them were active in at least one assay; those are over-represented in the sample as a whole.
growth vs 90%: less than gives rule met; not less than gives rule not met.

[
  {
    "Compound": "CCN1CCC(CCOC)(CN2c3ccccc3Sc3ccc(Cl)cc32)C1 (stereo not given)",
    "Experimental Target": "NCI-H322M lung",
    "Group Label": "rule met"
  },
  {
    "Compound": "CCN(CCCCCCCCCCN1CC(=O)N(CCCCCCCCCCN(CC)Cc2ccccc2OC)CC1=O)Cc1ccccc1OC",
    "Experimental Target": "NCI-H322M lung",
    "Group Label": "rule met"
  },
  {
    "Compound": "O=C(Nc1ccncc1)C(=O)c1cn(S(=O)(=O)c2cccc3ccccc23)c2ccccc12",
    "Experimental Target": "NCI-H322M lung",
    "Group Label": "rule met"
  }
]

Q: Confirm or reject: growth of COc1cc(/C=N/NC(=O)c2ccccc2Nc2ccnc(C(F)(F)F)c2)ccc1O lies strictly below 90%
A: rule not met

Q: Confirm or reject: growth of COc1ccc(-c2cc(/C=C3\C(=O)Nc4ccc(OC)cc43)[nH]n2)cc1 lies strictly below 90%
A: rule met

Q: Confirm or reject: growth of COc1cccc(C(=O)Nc2ccc(CN3CCc4nc5cc(OC)c(OC)cc5cc43)cc2)c1 lies strictly below 90%
A: rule met

Q: Confirm or reject: growth of O=C1NC(=O)N(Cc2ccccc2)CC1Br (stereo not given) lies strictly below 90%
A: rule not met

Q: Confirm or reject: growth of Cc1cc2ccccc2nc1-c1ccccc1F lies strictly below 90%
A: rule not met

Q: Confirm or reject: growth of O=C(Nc1cccc(-n2cc(-c3ccncc3)c(-c3ccc(O)c(Cl)c3)n2)c1)Nc1cccc(C(F)(F)F)c1 lies strictly below 90%
A: rule met

Q: Confirm or reject: growth of O=C(Nc1nc2ccccc2s1)Nc1ccc([N+](=O)[O-])cc1Cl lies strictly below 90%
A: rule met

----------
Record form. Attribute: growth. Fill in for each entry.
System: KM12 colon
Experiment: NCI-60 one-dose screen, 48 h (100 = growth as untreated, 0 = no growth, -100 = all killed)
Details: 10 µM
Compounds without any hit were thinned out: in the full panel of roughly 83,000, 20% have a hit.
One number for each entry, in %.

Previously resolved entries follow.
[
  {
    "Compound": "COc1cc(/C=N/NC(=O)c2ccccc2Nc2ccnc(C(F)(F)F)c2)ccc1O",
    "Outcome Measure": "growth",
    "Units Text": "%",
    "Reported Measurement": 114
  },
  {
    "Compound": "COc1ccc(CN2CCC(N3CCCC3=O)c3cc(Cl)ccc32)cc1 (stereo unspecified)",
    "Outcome Measure": "growth",
    "Units Text": "%",
    "Reported Measurement": 103
  },
  {
    "Compound": "Nc1ncnc2[nH]c(=O)[nH]c12",
    "Outcome Measure": "growth",
    "Units Text": "%",
    "Reported Measurement": 99.8
  },
  {
    "Compound": "CCN(CC)CCSCCCNc1c2ccc(Cl)cc2nc2ccc(OC)cc12",
    "Outcome Measure": "growth",
    "Units Text": "%",
    "Reported Measurement": -10.9
  },
  {
    "Compound": "CC1=C(N2CCOCC2)C(N2CCOCC2)=C(C)C(=O)C1=O",
    "Outcome Measure": "growth",
    "Units Text": "%",
    "Reported Measurement": 105
  }
]

Q: Param item = Cc1ccc(C)c(C(O)(c2cc(C)ccc2C)C2(O)CCCCC2)c1 ; retrieve measured growth.
A: 95.4
